- Test system: RPMI-8226 leukemia
- EXPERIMENT_SUMMARY: NCI tumour cell line growth inhibition, 48 h
MEASURED_METRIC: TGI

{"COMPOUND": "NC(N)=NCCCC(N=c1c2ccccc2n(O)c2ccccc12)C(=O)O (configuration not stated)", "SYSTEM_UNDER_TEST": "RPMI-8226 leukemia", "MEASURED_METRIC": "TGI", "READOUT_VALUE": "75.7 µM"}
{"COMPOUND": "O=S(=O)([O-])[O-].[OH3+].[OH3+].[OH3+].[Ru+2].c1ccccc1", "SYSTEM_UNDER_TEST": "RPMI-8226 leukemia", "MEASURED_METRIC": "TGI", "READOUT_VALUE": "> 100 µM"}
{"COMPOUND": "CCOC(=O)/C(C#N)=C/c1ccc2c(-c3c(OCC)ccc4cc(/C=C(\\C#N)C(=O)OCC)ccc34)c(OCC)ccc2c1", "SYSTEM_UNDER_TEST": "RPMI-8226 leukemia", "MEASURED_METRIC": "TGI", "READOUT_VALUE": "> 100 µM"}
{"COMPOUND": "CCOC(=O)CC(=O)NC1CC2CCC1(C)C2(C)C (configuration not stated)", "SYSTEM_UNDER_TEST": "RPMI-8226 leukemia", "MEASURED_METRIC": "TGI", "READOUT_VALUE": "> 100 µM"}
{"COMPOUND": "CC(=O)N=C(N=Nc1c(O)[nH]c2ccc(C)cc12)NC(C)=O", "SYSTEM_UNDER_TEST": "RPMI-8226 leukemia", "MEASURED_METRIC": "TGI", "READOUT_VALUE": "> 100 µM"}
{"COMPOUND": "CCOP(=O)(OCC)C(NC(=O)OCC(Cl)(Cl)Cl)n1nnc(C(=O)OC)c1C(=O)OC (configuration not stated)", "SYSTEM_UNDER_TEST": "RPMI-8226 leukemia", "MEASURED_METRIC": "TGI", "READOUT_VALUE": "> 100 µM"}
{"COMPOUND": "CSc1ccc2c(cc1=O)[C@@H](NC(C)=O)CCc1cc(O)c(O)c(O)c1-2", "SYSTEM_UNDER_TEST": "RPMI-8226 leukemia", "MEASURED_METRIC": "TGI", "READOUT_VALUE": "> 100 µM"}
{"COMPOUND": "Nc1ccccc1C#CC#Cc1ccccc1N", "SYSTEM_UNDER_TEST": "RPMI-8226 leukemia", "MEASURED_METRIC": "TGI", "READOUT_VALUE": "> 100 µM"}
{"COMPOUND": "COc1ccc2[nH]c(CCNC(=O)c3cc([N+](=O)[O-])cc([N+](=O)[O-])c3)cc2c1", "SYSTEM_UNDER_TEST": "RPMI-8226 leukemia", "MEASURED_METRIC": "TGI", "READOUT_VALUE": "> 100 µM"}
{"COMPOUND": "CC(O)C1OC(O)C2OC(C)(C)OC12 (configuration not stated)", "SYSTEM_UNDER_TEST": "RPMI-8226 leukemia", "MEASURED_METRIC": "TGI", "READOUT_VALUE": "> 100 µM"}
{"COMPOUND": "O=[N+]([O-])c1ccc(N2CCN(Cc3ccccc3)CC2)c2c1no[n+]2[O-]", "SYSTEM_UNDER_TEST": "RPMI-8226 leukemia", "MEASURED_METRIC": "TGI", "READOUT_VALUE": "4.64 µM"}
{"COMPOUND": "COc1cc2oc(=O)cc(C)c2cc1[N+](=O)[O-]", "SYSTEM_UNDER_TEST": "RPMI-8226 leukemia", "MEASURED_METRIC": "TGI", "READOUT_VALUE": "> 75.3 µM"}
{"COMPOUND": "Cc1cc2c(c3c1c1ccccc1n3C)C(=O)C=CC2=O", "SYSTEM_UNDER_TEST": "RPMI-8226 leukemia", "MEASURED_METRIC": "TGI", "READOUT_VALUE": "26.5 µM"}
{"COMPOUND": "O=C(NN=C1CCN(Cc2ccccc2)CC1)C(O)(c1ccccc1)c1ccccc1", "SYSTEM_UNDER_TEST": "RPMI-8226 leukemia", "MEASURED_METRIC": "TGI", "READOUT_VALUE": "> 100 µM"}
{"COMPOUND": "C/C(=N\\NC(=S)N1CCCCCC1)c1nccnc1C", "SYSTEM_UNDER_TEST": "RPMI-8226 leukemia", "MEASURED_METRIC": "TGI", "READOUT_VALUE": "> 100 µM"}
{"COMPOUND": "CSC1=N/C(=C\\c2ccc(C)cc2)C(=O)N1CN1CCOCC1", "SYSTEM_UNDER_TEST": "RPMI-8226 leukemia", "MEASURED_METRIC": "TGI", "READOUT_VALUE": "> 100 µM"}
{"COMPOUND": "CN(C1=NCCO1)c1cccc2ccccc12", "SYSTEM_UNDER_TEST": "RPMI-8226 leukemia", "MEASURED_METRIC": "TGI", "READOUT_VALUE": "> 10 µM"}
